Attribute: abundance fitness
B1: Zinc finger MYM-type protein 2, residues 463 to 506; numbered along this chain, Q9UBW7 (parent)
chain: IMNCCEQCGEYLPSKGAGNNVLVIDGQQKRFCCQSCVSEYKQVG

Variants of: B1
Test: abundance fitness (aPCA) (normalised: wild type 0, dead -1); higher = more abundant; growth selection in yeast, the domain comes from the species named
Details: Homo sapiens

{"Variant spec": "C36R", "abundance fitness": -0.37}
{"Variant spec": "Q34T", "abundance fitness": -0.031}
{"Variant spec": "G16A", "abundance fitness": -0.06}
{"Variant spec": "E10Q", "abundance fitness": -0.403}
{"Variant spec": "Q7W", "abundance fitness": -0.214}
{"Variant spec": "K15S", "abundance fitness": 0.114}
{"Variant spec": "G16V", "abundance fitness": -0.272}
